Target: Short transient receptor potential channel 4 (Mus musculus, UniProt Q9QUQ5)
Sequence (Q9QUQ5 whole entry): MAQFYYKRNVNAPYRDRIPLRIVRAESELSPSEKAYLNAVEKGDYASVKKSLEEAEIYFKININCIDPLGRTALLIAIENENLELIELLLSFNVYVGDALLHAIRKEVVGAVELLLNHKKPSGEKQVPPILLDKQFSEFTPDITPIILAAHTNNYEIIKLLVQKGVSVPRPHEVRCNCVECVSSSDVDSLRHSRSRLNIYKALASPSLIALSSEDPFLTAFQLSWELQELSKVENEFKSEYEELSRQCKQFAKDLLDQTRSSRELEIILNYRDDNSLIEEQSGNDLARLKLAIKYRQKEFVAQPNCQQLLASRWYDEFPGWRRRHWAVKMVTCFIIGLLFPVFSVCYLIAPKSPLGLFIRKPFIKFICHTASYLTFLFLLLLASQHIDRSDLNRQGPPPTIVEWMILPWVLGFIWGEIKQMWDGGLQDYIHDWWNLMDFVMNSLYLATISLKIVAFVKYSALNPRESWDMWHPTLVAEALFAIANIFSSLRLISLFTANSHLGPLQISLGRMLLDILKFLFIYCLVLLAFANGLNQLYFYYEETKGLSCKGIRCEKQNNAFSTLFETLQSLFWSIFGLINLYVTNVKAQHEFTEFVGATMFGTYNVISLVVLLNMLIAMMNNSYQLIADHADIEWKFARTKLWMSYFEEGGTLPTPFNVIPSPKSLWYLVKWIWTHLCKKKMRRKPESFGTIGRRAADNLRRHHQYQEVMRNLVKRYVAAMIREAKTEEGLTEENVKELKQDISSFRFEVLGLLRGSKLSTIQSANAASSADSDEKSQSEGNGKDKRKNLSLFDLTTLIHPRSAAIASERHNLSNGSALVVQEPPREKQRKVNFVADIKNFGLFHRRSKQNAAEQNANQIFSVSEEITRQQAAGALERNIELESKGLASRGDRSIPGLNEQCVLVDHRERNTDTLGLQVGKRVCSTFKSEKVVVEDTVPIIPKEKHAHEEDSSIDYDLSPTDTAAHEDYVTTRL
Assay: mouse TRPC4 channel inhibitors, dose response, cell-based, HEK293 TRPC4/mu-opioid, Fluo-4 calcium (AID 434942);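 further: potency of inhibitors blocking the TRPC4 calcium response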
Format: functional
Calls of active or inactive are those of the source.
observable: EC50

IN: Param item = CCCn1c(=O)c2ccccc2n2c(SCCOc3ccccc3)nnc12 ; retrieve measured EC50.
OUT: 5.96 µM (active)

IN: Param item = CSCCNC(=O)c1ccc(OC2CCN(CCc3ccccc3)CC2)cc1 ; retrieve measured EC50.
OUT: 0.473 µM (active)

IN: Param item = COc1ccc(O)c(CN2CCCC(C(=O)c3sccc3C)C2)c1 (configuration not stated) ; retrieve measured EC50.
OUT: 3.35 µM (active)

IN: Param item = Cc1cc(N2CCCCC2)nc2ccccc12 ; retrieve measured EC50.
OUT: 0.0027 µM (active)

IN: Param item = O=[N+]([O-])c1cccc(-c2nnc(C3CC3)o2)c1 ; retrieve measured EC50.
OUT: 3.76 µM (active)

IN: Param item = COc1ccc(Cl)cc1N=C(N)Nc1nc(C)cc(C)n1 ; retrieve measured EC50.
OUT: 2.11 µM (active)

IN: Param item = Fc1cccc(Nc2c3c(nc4ccccc24)CCC3)c1 ; retrieve measured EC50.
OUT: 1.19 µM (active)

###

Target: Histone-lysine N-methyltransferase NSD2 (Homo sapiens)
Sequence (O96028 whole entry): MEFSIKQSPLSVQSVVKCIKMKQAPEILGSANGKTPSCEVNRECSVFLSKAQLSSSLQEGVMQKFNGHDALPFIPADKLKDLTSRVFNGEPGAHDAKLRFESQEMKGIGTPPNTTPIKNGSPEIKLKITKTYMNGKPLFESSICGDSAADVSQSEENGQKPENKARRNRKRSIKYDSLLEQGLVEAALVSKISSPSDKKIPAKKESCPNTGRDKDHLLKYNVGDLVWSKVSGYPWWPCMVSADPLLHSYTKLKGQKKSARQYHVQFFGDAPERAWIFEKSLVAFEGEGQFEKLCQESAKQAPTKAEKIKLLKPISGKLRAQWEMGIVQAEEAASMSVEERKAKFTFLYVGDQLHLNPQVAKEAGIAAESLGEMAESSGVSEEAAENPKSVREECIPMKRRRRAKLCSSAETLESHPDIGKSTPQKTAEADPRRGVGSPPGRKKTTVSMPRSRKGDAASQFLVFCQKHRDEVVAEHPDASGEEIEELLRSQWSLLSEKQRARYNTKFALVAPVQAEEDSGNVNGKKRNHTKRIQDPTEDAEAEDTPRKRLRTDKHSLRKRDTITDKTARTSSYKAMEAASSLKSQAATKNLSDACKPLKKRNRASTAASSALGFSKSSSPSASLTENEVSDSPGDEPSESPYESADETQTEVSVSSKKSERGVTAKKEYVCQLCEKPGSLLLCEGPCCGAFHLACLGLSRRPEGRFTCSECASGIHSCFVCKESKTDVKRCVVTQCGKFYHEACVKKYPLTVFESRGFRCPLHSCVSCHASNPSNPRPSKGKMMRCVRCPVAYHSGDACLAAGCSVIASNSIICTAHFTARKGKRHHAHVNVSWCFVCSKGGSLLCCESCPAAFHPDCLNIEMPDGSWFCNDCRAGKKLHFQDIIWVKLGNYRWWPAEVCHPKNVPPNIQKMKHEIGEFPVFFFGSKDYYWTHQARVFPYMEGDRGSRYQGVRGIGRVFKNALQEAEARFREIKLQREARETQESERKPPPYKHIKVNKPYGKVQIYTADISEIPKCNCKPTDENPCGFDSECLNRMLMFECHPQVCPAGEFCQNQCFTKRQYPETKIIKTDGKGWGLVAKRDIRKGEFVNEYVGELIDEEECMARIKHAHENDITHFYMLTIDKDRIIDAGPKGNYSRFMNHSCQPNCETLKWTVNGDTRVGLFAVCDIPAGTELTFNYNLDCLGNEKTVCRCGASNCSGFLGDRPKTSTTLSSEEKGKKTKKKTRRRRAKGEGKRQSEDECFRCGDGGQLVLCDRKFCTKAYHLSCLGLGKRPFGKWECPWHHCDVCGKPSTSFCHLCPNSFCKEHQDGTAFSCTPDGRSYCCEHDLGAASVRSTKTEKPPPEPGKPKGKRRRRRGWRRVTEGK
Format: biochemical
The source made the active and inactive calls.
observable: AC50

IN: Param item = CCN(CC)c1ccc(CN2CC=C(c3ccc(F)cc3)CC2)cc1 ; retrieve measured AC50.
OUT: > 20 µM (inactive)

IN: Param item = Cc1ccccc1-c1nnc2n1N=C(c1ccc(O)c(O)c1)CS2 ; retrieve measured AC50.
OUT: > 20 µM (inactive)

IN: Param item = CN(C1=C(N2CCOCC2)C(=O)c2ccccc2C1=O)c1ccccc1 ; retrieve measured AC50.
OUT: 4.86 µM (active)

IN: Param item = CC[n+]1c(-c2ccccc2)c2cc(N)ccc2c2ccc(N)cc21 [HOMIDIUM BROMIDE] ; retrieve measured AC50.
OUT: 0.293 µM (active)

IN: Param item = Cc1ccc(S(=O)(=O)/N=C2\C=C(NS(=O)(=O)c3ccccc3)C(=O)c3ccccc32)cc1 ; retrieve measured AC50.
OUT: 2.18 µM (active)

IN: Param item = N#Cc1c(NC(=O)c2ccc(Br)o2)n(-c2ccccc2)c2nc3ccccc3nc12 ; retrieve measured AC50.
OUT: 11.6 µM (active)

IN: Param item = CC(C)[n+]1ccn(C2=C([N-]S(=O)(=O)c3ccccc3)C(=O)c3ccccc3C2=O)c1 ; retrieve measured AC50.
OUT: 5.79 µM (active)

IN: Param item = COc1cc(-c2nnc(SCc3cc(=O)oc4cc(O)c(O)cc34)o2)cc(OC)c1OC ; retrieve measured AC50.
OUT: 0.665 µM (active)

IN: Param item = COc1cc(N(C(C)=O)c2ccc(O)c(C(=O)O)c2)c2ncccc2c1 ; retrieve measured AC50.
OUT: 6.27 µM (active)

###

Target: Leucine aminopeptidase (Plasmodium falciparum 3D7)
Sequence (Q8IL11 whole entry): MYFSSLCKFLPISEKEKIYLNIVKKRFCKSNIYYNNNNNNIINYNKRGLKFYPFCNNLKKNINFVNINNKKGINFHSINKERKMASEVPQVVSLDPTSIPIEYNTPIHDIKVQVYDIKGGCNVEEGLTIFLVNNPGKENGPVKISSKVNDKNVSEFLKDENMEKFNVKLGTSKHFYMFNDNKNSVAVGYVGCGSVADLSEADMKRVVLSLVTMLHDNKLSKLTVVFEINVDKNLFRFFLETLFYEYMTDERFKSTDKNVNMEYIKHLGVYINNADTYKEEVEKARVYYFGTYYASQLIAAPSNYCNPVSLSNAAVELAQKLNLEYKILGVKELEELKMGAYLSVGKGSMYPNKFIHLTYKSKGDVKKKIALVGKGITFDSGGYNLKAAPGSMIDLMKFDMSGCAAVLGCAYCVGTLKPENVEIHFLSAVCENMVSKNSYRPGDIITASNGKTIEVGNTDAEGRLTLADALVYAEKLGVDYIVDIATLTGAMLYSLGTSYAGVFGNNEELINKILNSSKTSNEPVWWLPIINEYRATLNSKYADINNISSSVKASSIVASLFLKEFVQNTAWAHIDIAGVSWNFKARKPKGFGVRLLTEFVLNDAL
Assay: P. falciparum M17LAP inhibitors, primary screen, biochemical, fluorogenic H-Leu-NHMec substrate, 1536-well (AID 1619)
Format: functional
Active and inactive are the calls of the source.
observable: IC50

IN: Param item = CSCCC(NC(=O)c1c(C)oc2c1CCCC2)C(=O)O (stereo not drawn) ; retrieve measured IC50.
OUT: 35.9 µM (active)

IN: Param item = O=C(Cn1cc(/C=N/O)c2ccccc21)N1CCOCC1 ; retrieve measured IC50.
OUT: 78.9 µM (active)

IN: Param item = O=C(O)CC12C[C@H]3C[C@@H](C1)CC(n1ncc(N4CCN(c5ccccc5)CC4)c(Cl)c1=O)(C3)C2 ; retrieve measured IC50.
OUT: 152 µM (active)

IN: Param item = O=C(CN1C(=O)S/C(=C/C=C/c2ccccc2)C1=O)Nc1ccc(C(=O)O)cc1 ; retrieve measured IC50.
OUT: 24.5 µM (active)

IN: Param item = CCCCCC(=O)NNC(=S)NC(=O)c1cccc([N+](=O)[O-])c1 ; retrieve measured IC50.
OUT: 24.4 µM (active)

IN: Param item = N#Cc1c(O)nc(SCC(=O)Nc2cccc(Cl)c2)nc1-c1ccco1 ; retrieve measured IC50.
OUT: 2.5 µM (active)

IN: Param item = O=[N+]([O-])c1cccc(-c2cc(O)n[nH]2)c1 ; retrieve measured IC50.
OUT: 6.99 µM (active)

IN: Param item = O=C(CN1C(=O)CCSc2ccccc21)Nc1ccc2c(c1)OCCO2 ; retrieve measured IC50.
OUT: 16.1 µM (active)
